- System: complementary DNA strand
- protocolNotes: UV-melting / van't Hoff analysis of PNA-DNA hybrid duplexes
- Type: binding
- assayContext: PNA-DNA duplex; 298 K; averages of three trials
[RMPγPNA-N] = PNA unit with R-MP-gamma backbone modification (N: the base)
I would appreciate it if you labelled entries True when −ΔTS° is 60 kcal/mol or higher, otherwise False.

Example entries and their recorded answers appear below.
H-GCATGTTTGA-NH2 [PNA4] (PNA; 5 R-MP-gamma units; C-terminal amide; modified_base (2)..(2) R-MP-gamma-backbone modified nucleotide; modified_base (4)..(4) R-MP-gamma-backbone modified nucleotide; modified_base (6)..(6) R-MP-gamma-backbone modified nucleotide; modified_base (8)..(8) R-MP-gamma-backbone modified nucleotide; modified_base (10)..(10) R-MP-gamma-backbone modified nucleotide)	True
H-GCATGTTTGA-NH2 [PNA1] (all peptide nucleic acid (PNA); C-terminal amide)	False

Answer whether −ΔTS° of H-GCATGTTTGA-NH2 [PNA2] (PNA; 1 R-MP-gamma unit; C-terminal amide; modified_base (6)..(6) R-MP-gamma-backbone modified nucleotide) is greater than or equal to 60 kcal/mol.
True

Answer whether −ΔTS° of H-GCATGTTTGA-NH2 [PNA5] (all [RMPγPNA-N], methylation of C not given here; C-terminal amide) is greater than or equal to 60 kcal/mol.
True

----------
- Test system: complementary RNA strand
- protocolNotes: UV-melting / van't Hoff analysis of PNA-RNA hybrid duplexes
- Type: binding
- assayContext: PNA-RNA duplex; 298 K; UV-melting curve fitting
[RMPγPNA-N] = PNA unit with R-MP-gamma backbone modification (N: the base)
Threshold 80 kcal/mol. −ΔH° below it: yes (1). −ΔH° at it or above: no (0).

H-GCATGTTTGA-NH2 [PNA4] (PNA; 5 R-MP-gamma units; C-terminal amide; modified_base (2)..(2) R-MP-gamma-backbone modified nucleotide; modified_base (4)..(4) R-MP-gamma-backbone modified nucleotide; modified_base (6)..(6) R-MP-gamma-backbone modified nucleotide; modified_base (8)..(8) R-MP-gamma-backbone modified nucleotide; modified_base (10)..(10) R-MP-gamma-backbone modified nucleotide)	no (0)
H-GCATGTTTGA-NH2 [PNA3] (PNA; 3 R-MP-gamma units; C-terminal amide; modified_base (4)..(4) R-MP-gamma-backbone modified nucleotide; modified_base (6)..(6) R-MP-gamma-backbone modified nucleotide; modified_base (8)..(8) R-MP-gamma-backbone modified nucleotide)	no (0)
H-GCATGTTTGA-NH2 [PNA5] (all [RMPγPNA-N], methylation of C not given here; C-terminal amide)	no (0)

−ΔH° under 80 kcal/mol? Item: H-GCATGTTTGA-NH2 [PNA1] (all peptide nucleic acid (PNA); C-terminal amide)
yes (1)

----------
- System: immobilized complementary DNA
- protocolNotes: Surface plasmon resonance (SPR) hybridization kinetics
- Format: binding
- assayContext: SPR, 1:1 binding model; † values approach limits of detection
- Procedure: FIG. 4 illustrates surface plamon resonance (SPR) sensorgrams (solid black lines) and fits (dotted lines) for hybridization of PNA probes to immobilized complementary DNA. Solutions contained 30 nM PNA. Error bars at t=420 sec illustrate standard deviations for three separate trials. Surface plasmon resonance (SPR) analysis is used to study the hybridization kinetics of ^R-MPγPNA-DNA and ^R-MPγPNA-RNA duplexes. Briefly, SPR was performed as follows. […]
[RMPγPNA-N] = PNA unit with R-MP-gamma backbone modification (N: the base)
// dissociation rate constant kd lookup, one value per entry

Look over these answered cases.
H-GCATGTTTGA-NH2 [PNA4] (PNA; 5 R-MP-gamma units; C-terminal amide; modified_base (2)..(2) R-MP-gamma-backbone modified nucleotide; modified_base (4)..(4) R-MP-gamma-backbone modified nucleotide; modified_base (6)..(6) R-MP-gamma-backbone modified nucleotide; modified_base (8)..(8) R-MP-gamma-backbone modified nucleotide; modified_base (10)..(10) R-MP-gamma-backbone modified nucleotide)	0.3 × 10^−4 ^† s^−1
H-GCATGTTTGA-NH2 [PNA3] (PNA; 3 R-MP-gamma units; C-terminal amide; modified_base (4)..(4) R-MP-gamma-backbone modified nucleotide; modified_base (6)..(6) R-MP-gamma-backbone modified nucleotide; modified_base (8)..(8) R-MP-gamma-backbone modified nucleotide)	0.00019 s⁻¹
H-GCATGTTTGA-NH2 [PNA5] (all [RMPγPNA-N], methylation of C not given here; C-terminal amide)	0.4 × 10^−4 ^† s^−1
H-GCATGTTTGA-NH2 [PNA1] (all peptide nucleic acid (PNA); C-terminal amide)	0.0013 s⁻¹

Assign dissociation rate constant kd to the following record: H-GCATGTTTGA-NH2 [PNA2] (PNA; 1 R-MP-gamma unit; C-terminal amide; modified_base (6)..(6) R-MP-gamma-backbone modified nucleotide)
0.00041 s⁻¹

Data origin: patent US11279736B2
